Protocol Text: CCTE_Padilla_ZF_Score.General: CCTE's 144 Hour Post-fertilization zebrafish Assay Score for General Malformation, Padilla Lab (AID 2284411)
Activity calls are given as the source filed them. How the source made its calls: active means hit-call score of the fitted dose curve at least 0.9, where 1 is the maximum; inactive means score below 0.9.
Select the correct class. Options are active, inactive and nothing else.

Use these answered entries as a reference point.
# Compound, Class Label
measured = [
    ("S=C(NC1CCCCC1)NC1CCCCC1", "active"),
    ("CCCCCCCCCCc1ccccc1", "inactive"),
    ("CC=CC(F)(F)C(F)(F)C(F)(F)F", "inactive"),
    ("C#CC1(O)CC[C@H]2[C@@H]3CCC4=CCCC[C@@H]4[C@H]3CC[C@@]21C (some centres not stated)", "active"),
    ("COCc1c(C(C)C)nc(C(C)C)c(/C=C/[C@@H](O)C[C@@H](O)CC(=O)O)c1-c1ccc(F)cc1", "inactive"),
    ("FC(F)=C(F)OC(F)(F)C(F)(F)C(F)(F)F", "inactive"),
    ("CCOC(F)(F)C(F)(F)C(F)(F)C(F)(F)F", "inactive"),
    ("C=CCOCC(O)CCl (configuration not stated)", "inactive"),
]

Q: Which outcome was assigned to CCCCC/C=C\C/C=C\CCCCCCCC(=O)OC in this test?
Ans: inactive

Q: Hey, what did the test say about CCCCCCCCc1ccc(Nc2ccc(CCCCCCCC)cc2)cc1 ?
Ans: inactive

Q: Which result was noted for this compound in the test: CCCCC(CC)COC(=O)c1ccccc1O (configuration not stated)
Ans: inactive

Q: Dear colleague, could you share the recorded outcome for c1ccc2c(c1)ccc1cc3c(ccc4ccccc43)cc12 when you have a moment?
Ans: inactive

====

Protocol Text: ATG_NFI_CIS: Attagene CIS-FACTORIAL HepG2 Assay for human Nuclear Factor I (NFI) (AID 2282989)
Settings: HepG2 cis-regulatory reporter, NFI response element transcription; actives raise or lower the signal
Calls of active or inactive are those of the source. How the source made its calls: active means hit-call score of the fitted dose curve at least 0.9, where 1 is the maximum; inactive means score below 0.9.
Endpoint Name: outcome

# Compound, Experimental Value
records = [
    ("COc1ccc([C@@H]2CC(=O)c3c(O)cc(O[C@@H]4O[C@H](CO[C@@H]5O[C@@H](C)[C@H](O)[C@@H](O)[C@H]5O)[C@@H](O)[C@H](O)[C@H]4O)cc3O2)cc1OC", "inactive"),
    ("CC(C)=CCC[C@H](C)CCO", "inactive"),
    ("CCCCCCCCCCCCCCCC(=O)OCC", "inactive"),
    ("COC(F)(F)C(F)(C(F)(F)F)C(F)(F)F", "inactive"),
]

Next item in the queue.
Short answer for C=CC(C)(CCC=C(C)C)OC(=O)C(C)C (configuration not stated) : outcome was inactive

====

Measured On: Nuclear receptor subfamily 4 group A member 2 (Homo sapiens) (UniProt P43354)
Sequence (P43354 whole entry, looked up): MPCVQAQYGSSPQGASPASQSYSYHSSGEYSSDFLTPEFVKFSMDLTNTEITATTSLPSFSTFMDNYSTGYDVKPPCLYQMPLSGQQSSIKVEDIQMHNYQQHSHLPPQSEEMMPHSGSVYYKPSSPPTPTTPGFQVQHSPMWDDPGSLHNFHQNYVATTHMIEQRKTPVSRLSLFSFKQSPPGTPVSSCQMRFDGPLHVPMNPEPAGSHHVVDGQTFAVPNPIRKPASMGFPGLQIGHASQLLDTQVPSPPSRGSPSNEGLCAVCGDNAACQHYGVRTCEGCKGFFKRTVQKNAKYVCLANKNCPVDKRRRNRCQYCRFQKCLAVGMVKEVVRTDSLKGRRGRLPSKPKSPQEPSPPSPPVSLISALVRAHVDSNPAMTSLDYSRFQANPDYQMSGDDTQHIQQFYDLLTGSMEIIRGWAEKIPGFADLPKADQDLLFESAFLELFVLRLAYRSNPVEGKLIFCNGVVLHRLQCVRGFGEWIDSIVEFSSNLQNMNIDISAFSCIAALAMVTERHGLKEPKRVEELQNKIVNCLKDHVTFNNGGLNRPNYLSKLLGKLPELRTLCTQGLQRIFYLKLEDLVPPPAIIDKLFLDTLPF
Protocol Text: ATG_NURR1_TRANS: Attagene TRANS-FACTORIAL HepG2 Assay for human Nuclear Receptor Related Protein 1 (NURR1) (AID 2282985)
Settings: HepG2 Attagene TRANS reporter, mRNA readout
Method: ATG_TRANS is a cell-based, multiplexed-readout assay that uses HepG2, a human liver cell line, with measurements taken at 24 hours after chemical dosing in a 24-well plate.ATG_NURR1_TRANS is one of 30 assay component(s) measured or calculated from the ATG_TRANS assay. […] This assay endpoint, ATG_NURR1_TRANS, was analyzed in the positive analysis fitting direction relative to DMSO as the negative control and baseline of activity. […]
Records with an inconclusive call do not appear. Active and inactive are the calls of the source. Rule for the calls: active = hit-call score of the fitted dose curve at least 0.9, where 1 is the maximum; inconclusive = response in the unintended direction; inactive = score below 0.9.
Form entry, call: pick from active, inactive

Worked examples follow.
# Compound, Class Label
measured = [
    ("CCC(C)(C)C1CCCCC1OC(C)=O (centres undefined)", "inactive"),
    ("Cc1ccc([N+](=O)[O-])cc1S(=O)(=O)O", "inactive"),
    ("C=CC(=O)OCCOC1C2CCC1C1CC=CC12 (centres undefined)", "inactive"),
    ("CC(=O)OC(C)C", "inactive"),
    ("FC(F)(F)C(=NOCC1OCCO1)c1ccc(Cl)cc1", "active"),
    ("[Cl][Nd]([Cl])[Cl]", "inactive"),
    ("CC(C)=CCCC(C)C=O (centres undefined)", "inactive"),
    ("CC(C)(C)c1ccc(OC(=O)c2ccccc2O)cc1", "inactive"),
    ("CC(=O)[C@H]1[C@H](C#N)C[C@H]2[C@@H]3CC=C4C[C@@H](O)CC[C@]4(C)[C@H]3CC[C@@]21C", "inactive"),
    ("CC1=CC[C@H]2C[C@@H]1C2(C)C", "inactive"),
]

Q: Which result was noted for this compound in the test: Cc1ccc2oc(=O)ccc2c1
Ans: inactive

Q: Give the logged outcome of this assay for the following compound: C=CC(=O)OCC(Br)CBr (centres undefined)
Ans: inactive

Q: Per the assay record, what outcome was assigned to CCOc1ccc(N)c([N+](=O)[O-])c1 ?
Ans: inactive

Q: Could you check what this test reported for Nc1nc2ccccc2[nH]1 ?
Ans: inactive

====

Measured On: Nuclear receptor subfamily 4 group A member 2 (Homo sapiens) (UniProt P43354)
Protocol Text: ATG_NURR1_TRANS: Attagene TRANS-FACTORIAL HepG2 Assay for human Nuclear Receptor Related Protein 1 (NURR1) (AID 2282985)
Settings: HepG2 Attagene TRANS reporter, mRNA readout
Records with an inconclusive call do not appear. Calls of active or inactive are those of the source. The calls were made as follows: active = hit-call score of the fitted dose curve at least 0.9, where 1 is the maximum; inconclusive = response in the unintended direction; inactive = score below 0.9.
API: response.call in class 1 for active, class 0 for inactive

# Molecule, Class Label
rows = [
    ("CCC(Cc1ccccc1)(C(=O)c1ccc(N2CCOCC2)cc1)N(C)C (stereo not drawn)", "class 1"),
]

Q: Called result for COc1c2ccoc2cc2oc(=O)ccc12
Ans: class 0

Q: Which outcome was entered for the molecule CCCCNc1ccc(NCCCC)c2c1C(=O)c1ccccc1C2=O in this test?
Ans: class 0

Q: // return assay outcome for CC1OC1C1CCC2(C)OC2C1 (stereo not drawn)
Ans: class 0

Q: Hey, what did the test say about Nc1cccc(C(F)(F)F)c1 ?
Ans: class 0

Q: Recorded test outcome, item CC(C)(C)C(=O)C=Cc1ccc(Cl)cc1
Ans: class 0

====

Protocol Text: ATG_AP_1_CIS: Attagene CIS-FACTORIAL HepG2 Assay for human Activator Protein 1 (AP-1) (AID 2282931)
Settings: HepG2 Attagene cis-factorial AP-1 reporter mRNA; actives raise or lower the signal
Experimental: ATG_CIS is a cell-based, multiplexed-readout assay that uses HepG2, a human liver cell line, with measurements taken at 24 hours after chemical dosing in a 24-well plate.ATG_AP_1_CIS is one of 52 assay component(s) measured or calculated from the ATG_CIS assay. […] This assay endpoint, ATG_AP_1_CIS, was analyzed with bidirectional fitting relative to DMSO as the negative control and baseline of activity. […]
The source made the active and inactive calls. The calls were made as follows: active = hit-call score of the fitted dose curve at least 0.9, where 1 is the maximum; inactive = score below 0.9.
A correct response names exactly one class from Yes for active, No for inactive

Worked cases, answers included:
# Compound, Class Label
rows = [
    ("C=CCOCC(O)CCl (stereo not given)", "No"),
    ("NNC(=O)c1cccc(C(=O)NN)c1", "No"),
    ("Cc1cccc(N(C)C(=S)Oc2ccc3ccccc3c2)c1", "No"),
    ("C=CCCCCCCCCC(=O)OCCCC", "No"),
    ("CN1C(=O)N(C)C(O)C1O (stereo not given)", "No"),
]

Q: How was CCCCCCCOC(=O)CCC classified in this test?
Ans: No

Q: Assay result, entry COC(=O)c1ccc2cc(C(=O)OC)ccc2c1 — outcome?
Ans: No

Q: // outcome(item) with item = OC1CCCCCCCCCCC1
Ans: No

Q: Hi, do you know how O=CN1CCCCC1 came out in this test?
Ans: No

Q: What call does the record list for CC(=O)Nc1nnc(S(N)(=O)=O)s1 ?
Ans: No

Q: Please let me know the test result on file for OC1CCCC1 .
Ans: No

Q: Given O=C1C=CC(=O)O1 , state the outcome it received in this test.
Ans: No

Q: Hi, sorry to bother you, what did the test record for CCc1nccnc1C ?
Ans: No

Q: In this assay, the call recorded for CC(C)C(=O)C(C)C was what?
Ans: Yes

====

Protocol Text: ATG_AP_2_CIS: Attagene CIS-FACTORIAL HepG2 Assay for human Activator Protein 2 (AP-2) (AID 2282932)
Settings: HepG2 AP-2 cis-reporter, Attagene transcription factor profiling; actives raise or lower the signal
Calls of active or inactive are those of the source. How the source made its calls: active means hit-call score of the fitted dose curve at least 0.9, where 1 is the maximum; inactive means score below 0.9.
Assign a class; possible classes are yes = active, no = inactive

Q: What did this assay record as the result for Clc1nc2ccccc2s1 ?
Ans: no

Q: Test call for this compound, please: FC(F)(F)C(=NOCC1OCCO1)c1ccc(Cl)cc1
Ans: no

Q: Kindly provide the recorded test outcome for the following compound: COc1ccc(C(Cl)=C(c2ccc(OC)cc2)c2ccc(OC)cc2)cc1
Ans: no

Q: Recorded test call requested for C=CC(C)(C)C
Ans: no

Q: Outcome? c1c[nH]cn1
Ans: no

Q: Given CCc1nccnc1C , state the outcome it received in this test.
Ans: no

// provenance: PubChem BioAssay (EPA / NIEHS)
